folding enthalpy values by entry
test: folding enthalpy; higher = less favourable; fluorescence melt of hairpins on a sequencing array, two-state fit
assay conditions: sodium 0.088 M
Response body: numeric value in kcal/mol, unit text excluded.

Some solved cases for reference:
[
  {
    "input sequence": "GGGATTGGAAACAGTTCC ((.(.((....)).).))",
    "assay readout": "folding enthalpy",
    "result number": -16.6
  },
  {
    "input sequence": "GTTGATGGAAACATCGAC ((.((((....)))).))",
    "assay readout": "folding enthalpy",
    "result number": -35.9
  },
  {
    "input sequence": "GTAGACGAAAGTCTATAC ((((((....)))..)))",
    "assay readout": "folding enthalpy",
    "result number": -12.2
  },
  {
    "input sequence": "GGAGTTCGAAAGAAATCC (((.(((....))).)))",
    "assay readout": "folding enthalpy",
    "result number": -33.8
  }
]

Query block: // folding enthalpy lookup, key: GCGTGGCGAAAGCGTCGC (((..((....))..)))
Result block: -22.6

Query block: // folding enthalpy lookup, key: GATCCACCCGTGGATC ((((((....))))))
Result block: -40.4

Query block: // folding enthalpy lookup, key: GCGGCGATCCGC ((((....))))
Result block: -16.7

Query block: // folding enthalpy lookup, key: GGCCAGGCGAAAGCCGCC (((..(((....))))))
Result block: -13.9

Query block: // folding enthalpy lookup, key: GATCCATCCTGGATC ((((((...))))))
Result block: -43

----------
folding enthalpy values by entry
test: folding enthalpy; higher = less favourable; fluorescence melt of hairpins on a sequencing array, two-state fit
assay conditions: sodium 0.088 M
Response body: numeric value in kJ/mol, unit text excluded.

Some solved cases for reference:
[
  {
    "input sequence": "GCCGGGCGAAAGCTTGGC (((..((....))..)))",
    "measurement units": "kJ/mol",
    "folding enthalpy": -102
  },
  {
    "input sequence": "GGCAACGAAAGTTACGCC ((((((....)))..)))",
    "measurement units": "kJ/mol",
    "folding enthalpy": -101
  },
  {
    "input sequence": "CGAAGCCGGAAACGGTCG (((..(((....))))))",
    "measurement units": "kJ/mol",
    "folding enthalpy": -52.7
  },
  {
    "input sequence": "GGCATCGGAAACGATACC ((.((((....)))).))",
    "measurement units": "kJ/mol",
    "folding enthalpy": -113
  },
  {
    "input sequence": "GCTGTCGAAAGACGAAGC ((((((....)))..)))",
    "measurement units": "kJ/mol",
    "folding enthalpy": -76.9
  },
  {
    "input sequence": "GATCGTTGCTACGATC ((((((....))))))",
    "measurement units": "kJ/mol",
    "folding enthalpy": -150
  },
  {
    "input sequence": "GATATGCGAAAGCAAATC (((.(((....))).)))",
    "measurement units": "kJ/mol",
    "folding enthalpy": -102
  },
  {
    "input sequence": "CCGTTGAAAAACGG (((((....)))))",
    "measurement units": "kJ/mol",
    "folding enthalpy": -83.1
  }
]

Query block: // folding enthalpy lookup, key: GCTCGGTCGAAAGACAGC (((..(((....))))))
Result block: -51.5

Query block: // folding enthalpy lookup, key: GATCTGCCACAGATC ((((((...))))))
Result block: -133

----------
test: folding enthalpy; higher = less favourable; fluorescence melt of hairpins on a sequencing array, two-state fit
assay conditions: sodium 0.088 M
assay readout: folding enthalpy (kcal/mol)
Response body: numeric value in kcal/mol, unit text excluded.

Some solved cases for reference:
[
  {
    "input sequence": "GCTTTAGGAAACTGAAGC ((((.((....)).))))",
    "folding enthalpy / kcal/mol": -30.1
  },
  {
    "input sequence": "GATCGTACGAACGATC ((((((....))))))",
    "folding enthalpy / kcal/mol": -34.3
  },
  {
    "input sequence": "GGATTCGCGAAAGCGTCC (((..(((....))))))",
    "folding enthalpy / kcal/mol": -10.7
  },
  {
    "input sequence": "GCATAACGAAAGTTTTGC (((.(((....))).)))",
    "folding enthalpy / kcal/mol": -30.7
  },
  {
    "input sequence": "GTTGCGCGAAAGCGAAAC (((.(((....))).)))",
    "folding enthalpy / kcal/mol": -27.8
  },
  {
    "input sequence": "GATCGGTCTACCGATC ((((((....))))))",
    "folding enthalpy / kcal/mol": -39.3
  },
  {
    "input sequence": "GAACAGGGAAACCTGTTC (((((((....)))))))",
    "folding enthalpy / kcal/mol": -37.8
  },
  {
    "input sequence": "GGCAGCGAAAGCTAAGCC ((((((....)))..)))",
    "folding enthalpy / kcal/mol": -25.2
  },
  {
    "input sequence": "GTCGCGGGAAACCGTGGC (.(.(((....))).).)",
    "folding enthalpy / kcal/mol": -28.5
  },
  {
    "input sequence": "GGGTTTGCGAAAGCACCC (((..(((....))))))",
    "folding enthalpy / kcal/mol": -18.9
  }
]

Query block: // folding enthalpy lookup, key: GCTTCGCGAAAGCGTTGC ((..(((....)))..))
Result block: -20.3

Query block: // folding enthalpy lookup, key: GATCATATCATGATC ((((((...))))))
Result block: -37.2

Query block: // folding enthalpy lookup, key: GGGAACGCGAAAGCGCCC (((..(((....))))))
Result block: -16.4

Query block: // folding enthalpy lookup, key: GCACCGCGAAAGCCTTGC (((..((....))..)))
Result block: -14.8

Query block: // folding enthalpy lookup, key: GCTGTCGGAAACGATGGC ((..(((....)))..))
Result block: -33.5

----------
test: melting temperature; fluorescence melt of hairpins on a sequencing array, two-state fit, raised by 9.35 °C to match UV melts
assay conditions: sodium 0.088 M
Tm values by entry
Response body: numeric value in °C, unit text excluded.

Some solved cases for reference:
[
  {
    "input sequence": "GGTGACGCGAAAGCGACC (((..(((....))))))",
    "assay readout": "Tm",
    "result number": 40.4
  },
  {
    "input sequence": "GATCTTTAAAAAGATC ((((((....))))))",
    "assay readout": "Tm",
    "result number": 40.5
  }
]

Query block: // Tm lookup, key: GCGGAACCCCGC ((((....))))
Result block: 51.3

Query block: // Tm lookup, key: GTGGTCGAAAGACCCAC ((((((....))).)))
Result block: 51.1

Query block: // Tm lookup, key: GAATTCCGAAAGGAGTTC (((.(((....))).)))
Result block: 49

Query block: // Tm lookup, key: GATCTTGAATAAGATC ((((((....))))))
Result block: 49.3

----------
test: folding enthalpy; higher = less favourable; fluorescence melt of hairpins on a sequencing array, two-state fit
assay conditions: sodium 0.088 M
folding enthalpy values by entry
Just so you know, I need the unit written after the number.

Some solved cases for reference:
[
  {
    "input sequence": "GGCACCGAAAGGTCCGCC ((((((....)))..)))",
    "folding enthalpy": "-20.4 kcal/mol"
  },
  {
    "input sequence": "GACAGCGGAAACGCTGCC (.(((((....))))).)",
    "folding enthalpy": "-11.5 kcal/mol"
  },
  {
    "input sequence": "GGATCCGAAAGGACTTCC ((((((....)))..)))",
    "folding enthalpy": "-19.5 kcal/mol"
  }
]

Query block: // folding enthalpy lookup, key: GCTATGCGAAAGCAGTGC ((..(((....)))..))
Result block: -19.1 kcal/mol

Query block: // folding enthalpy lookup, key: GGGCCCGGAAACGGACCC (((.(((....))).)))
Result block: -39.3 kcal/mol

Query block: // folding enthalpy lookup, key: GCATGGCGAAAGCAAAGC ((.(.((....)).).))
Result block: -10.9 kcal/mol

----------
test: folding enthalpy; higher = less favourable; fluorescence melt of hairpins on a sequencing array, two-state fit
assay conditions: sodium 0.088 M
assay readout: folding enthalpy (kcal/mol)
Response body: numeric value in kcal/mol, unit text excluded.

Some solved cases for reference:
[
  {
    "input sequence": "GGGTAGGAAACTACCC ((((((....))))))",
    "measurement units": "kcal/mol",
    "folding enthalpy": -29.6
  },
  {
    "input sequence": "GCACCGCGAAAGCGCTGC (((.(((....))).)))",
    "measurement units": "kcal/mol",
    "folding enthalpy": -31.9
  },
  {
    "input sequence": "GTTTACGGAAACGTAGAC ((.((((....)))).))",
    "measurement units": "kcal/mol",
    "folding enthalpy": -24.7
  }
]

Query block: // folding enthalpy lookup, key: GATTTTACGAAAGTAATC (((..(((....))))))
Result block: -13.6

Query block: // folding enthalpy lookup, key: GCAATGCGAAAGCTGTGC (((..((....))..)))
Result block: -20.6

Query block: // folding enthalpy lookup, key: GGTGTCGAAAGACACACC ((((((....)))..)))
Result block: -9.34

Query block: // folding enthalpy lookup, key: GGGCGAGGAAACCCGCCC (((((.(....).)))))
Result block: -34.7

Query block: // folding enthalpy lookup, key: GTCTCACGAAAGTGGAC (((.(((....))))))
Result block: -20.7

Query block: // folding enthalpy lookup, key: GAGGAAGAAATTCCTC ((((((....))))))
Result block: -25

Query block: // folding enthalpy lookup, key: GCGTTAGGAAACTAACGC (((((((....)))))))
Result block: -50.9

Query block: // folding enthalpy lookup, key: GATCAGCGTCCTGATC ((((((....))))))
Result block: -32.4

Query block: // folding enthalpy lookup, key: GGACGGGGAAACCCATCC (((.(((....))).)))
Result block: -27.6

Query block: // folding enthalpy lookup, key: CGAACGGAAACGTTATCG ((((((....)))..)))
Result block: -14.6

Query block: // folding enthalpy lookup, key: GCTCCAGGAAACCAGAGC ((((..(....)..))))
Result block: -19.4

Query block: // folding enthalpy lookup, key: GCGACACGAAAGTGCGC (((.(((....))))))
Result block: -22.7

Data origin: the array DNA melting data of Ke et al. (doi:10.1101/2024.01.08.574731)
